- study system: AChE (Rattus norvegicus)
- Construct: from tissue; host or cells: rat hippocampus, crude homogenate (P2 synaptosome-rich fraction)
- Sequence (P37136 32-614): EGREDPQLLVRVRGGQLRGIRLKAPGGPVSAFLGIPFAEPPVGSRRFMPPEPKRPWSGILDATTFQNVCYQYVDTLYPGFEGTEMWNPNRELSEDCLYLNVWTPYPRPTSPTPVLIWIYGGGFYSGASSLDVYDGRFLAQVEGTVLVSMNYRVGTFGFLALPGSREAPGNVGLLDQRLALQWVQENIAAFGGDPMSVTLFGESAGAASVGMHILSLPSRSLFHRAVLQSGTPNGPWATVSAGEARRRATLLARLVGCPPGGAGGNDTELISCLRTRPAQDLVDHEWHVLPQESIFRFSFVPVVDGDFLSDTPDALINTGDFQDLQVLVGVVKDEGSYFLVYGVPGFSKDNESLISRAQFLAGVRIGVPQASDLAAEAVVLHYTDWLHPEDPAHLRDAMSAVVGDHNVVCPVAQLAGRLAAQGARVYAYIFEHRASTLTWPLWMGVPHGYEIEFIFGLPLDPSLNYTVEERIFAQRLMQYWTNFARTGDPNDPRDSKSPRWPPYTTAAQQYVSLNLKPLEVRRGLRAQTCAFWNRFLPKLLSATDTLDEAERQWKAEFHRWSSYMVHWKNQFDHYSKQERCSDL
- assay summary: biochemical
- condition info: AChE isolated from rat brain; read-out: IC50 value (AChE)

| compound | IC50 |
| --- | --- |
| CC=C1C2CCCC1(N)c1ccc(=O)[nH]c1C2 (stereo not shown) [Compound 3, C15 -desmethyl-(C8 -C15)dihydrohuperzine] | 13 µM |
